- measurement-target: Peroxisome proliferator-activated receptor gamma (Homo sapiens, UniProt P37231)
- Sequence (P37231 whole entry): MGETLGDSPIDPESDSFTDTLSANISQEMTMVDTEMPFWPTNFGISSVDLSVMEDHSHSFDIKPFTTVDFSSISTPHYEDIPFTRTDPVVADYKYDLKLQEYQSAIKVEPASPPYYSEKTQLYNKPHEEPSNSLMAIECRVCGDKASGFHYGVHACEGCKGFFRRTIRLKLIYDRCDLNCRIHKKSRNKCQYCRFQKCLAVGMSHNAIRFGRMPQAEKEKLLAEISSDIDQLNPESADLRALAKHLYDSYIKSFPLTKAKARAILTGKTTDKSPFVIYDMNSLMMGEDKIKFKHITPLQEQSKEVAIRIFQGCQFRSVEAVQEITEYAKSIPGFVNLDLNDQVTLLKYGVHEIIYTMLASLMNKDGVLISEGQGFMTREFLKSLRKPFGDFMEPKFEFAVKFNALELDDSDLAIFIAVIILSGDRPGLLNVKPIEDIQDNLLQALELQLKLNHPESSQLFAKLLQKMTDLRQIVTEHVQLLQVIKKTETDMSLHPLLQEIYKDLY
- method-summary: Transactivation activity at PPARgamma (unknown origin)
measure: EC50 (nM)
One number for each entry, in nM.

Below, 3 compounds whose answers are already recorded.
{"item-smiles": "CC/C(=N\\OCCOc1ccc(Cc2sc(=O)[nH]c2O)cc1)c1ccc(-c2ccccc2)cc1", "measurement-target": "Peroxisome proliferator-activated receptor gamma (Homo sapiens, UniProt P37231)", "measure": "EC50", "unit": "nM", "recorded-result": 1600}
{"item-smiles": "C/C(=N\\OCCOc1ccc(Cc2sc(=O)[nH]c2O)cc1)c1ccccn1", "measurement-target": "Peroxisome proliferator-activated receptor gamma (Homo sapiens, UniProt P37231)", "measure": "EC50", "unit": "nM", "recorded-result": 2800}
{"item-smiles": "C/C(=N\\OCCOc1ccc(Cc2sc(=O)[nH]c2O)cc1)c1ccc(-c2ccncc2)cc1", "measurement-target": "Peroxisome proliferator-activated receptor gamma (Homo sapiens, UniProt P37231)", "measure": "EC50", "unit": "nM", "recorded-result": 1600}

Given item C/C(=N\OCCOc1ccc(Cc2sc(=O)[nH]c2O)cc1)c1cccnc1 , the value recorded as its EC50 is 2800

Where do the numbers come from? From BindingDB's records for doi:10.1007/s00044-010-9428-9.
